# EXPERIMENT: small-molecule microarray binders of probe aEGFR, primary screen, biochemical, biotinylated probe, 635/667 nm fluorescence (AID 1097);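 note: probe is a biotinylated anti-EGFR antibody binding compounds printed on slides; score combines fluorescence near 667 nm and signal to noise of each spot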
# SETTINGS: higher = more signal
MEASUREMENT_NAME: composite z-score
Give only the figure.

Known composite z-score results, listed for orientation:
# COMPOUND, MEASURED_VALUE
data = [
    ("Cc1c(NC(=O)/C(C#N)=C/c2ccc(Cl)cc2)c(=O)n(-c2ccccc2)n1C", -0.153),
    ("C=C(CC1([C@@H](NP(=O)(c2ccccc2)c2ccccc2)[C@H]2C[C@@H]2CCN(C(=O)OCC)S(=O)(=O)c2ccc(C)cc2)CC1)c1ccccc1", 0.104),
    ("CCC[C@@H]1[C@@H](Sc2ccccc2)[C@@H](C(=O)O)[C@H](c2ccc(C)cc2)N1S(=O)(=O)c1ccc(C)cc1", 0.129),
    ("CCc1cccc(NC(=O)O[C@H]2[C@H](OC(=O)Nc3ccc4c(c3)OCO4)[C@H](OC(=O)Nc3ccc4c(c3)OCO4)[C@@H](OC)O[C@@H]2CO)c1", -0.13),
    ("CN(C)C(=O)[C@@]1(CCS(=O)(=O)c2ccccc2)N=C(c2ccc(OCCCO)cc2)O[C@H]1c1ccccc1N=[N+]=[N-]", -0.0168),
]

Reported composite z-score, compound `CC(C)C[C@@H]1NC(=O)[C@@H]2C[C@H](C(=O)O)[C@H](c3ccc(O)cc3)N2C1=O` : ____
0.0226

# repeat for `COc1ccc([Si](C)(C)[C@@H]2[C@@H](CCO)O[C@]3(C(=O)N(Cc4ccccc4)c4ccc(N5C(=O)c6ccccc6Oc6ccccc65)cc43)[C@H]2C)cc1`
-0.19

# repeat for `COCCOC(=O)N1C(=O)[C@@]2(c3ccccc31)[C@H](c1ccc(OCCO)cc1)N1[C@H](c3ccccc3)[C@H](c3ccccc3)OC(=O)[C@H]1[C@@H]2C(=O)N1CCN(c2ncccn2)CC1`
0.241

# repeat for `CCOC(=O)C1=CC[C@@H](c2ccccc2)N(S(=O)(=O)C[Si](C)(C)C)[C@H]1c1ccccc1`
0.154

# repeat for `[N-]=[N+]=NCc1ccccc1C[C@]1(C(=O)NCc2ccccc2)N=C(c2ccc(OCCCO)cc2)O[C@H]1c1ccccc1CN=[N+]=[N-]`
0.0506

# repeat for `COC(=O)[C@@]1(Cc2ccc(F)cc2)[C@H]2c3cc(C(=O)N(C)C)n(CCO)c3C[C@H]2CN1C(=O)c1ccccc1`
-0.0271

# repeat for `COCCOC(=O)N1C(=O)[C@@]2(c3cc(C#CC4=CCCCC4)ccc31)[C@H](c1ccc(OCCO)cc1)N1[C@H](c3ccccc3)[C@H](c3ccccc3)OC(=O)[C@H]1[C@@H]2C(=O)N1CCCCCCC1`
0.604

# repeat for `COCCOC(=O)N1C(=O)[C@@]2(c3cc(C#CCC(C(=O)OC)C(=O)OC)ccc31)[C@H](C(=O)N1CCc3cc(OC)c(OC)cc3C1)[C@H]1C(=O)O[C@H](c3ccccc3)[C@H](c3ccccc3)N1[C@@H]2c1ccc(O)cc1`
0.135
